# credit: patent US20260098080A1

- System: fIXa (human, UniProt P00740 47-461)
- Sequence (P00740 47-461 limits assumed): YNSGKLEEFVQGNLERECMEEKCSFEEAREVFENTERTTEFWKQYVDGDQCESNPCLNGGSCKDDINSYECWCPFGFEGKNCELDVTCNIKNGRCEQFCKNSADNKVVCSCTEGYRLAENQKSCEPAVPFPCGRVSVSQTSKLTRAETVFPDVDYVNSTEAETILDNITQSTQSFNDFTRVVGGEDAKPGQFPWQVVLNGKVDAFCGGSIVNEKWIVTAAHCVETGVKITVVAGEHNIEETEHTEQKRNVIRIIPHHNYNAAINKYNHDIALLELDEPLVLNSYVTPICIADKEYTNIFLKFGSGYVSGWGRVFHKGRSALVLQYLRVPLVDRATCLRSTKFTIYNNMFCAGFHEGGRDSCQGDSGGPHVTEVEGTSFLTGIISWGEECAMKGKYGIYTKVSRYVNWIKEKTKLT
- Experiment Summary: cell-based or functional assay
Where no end group is shown, it is not given here.
Please go through the items and note down their IC50, enzyme activity on synthetic substrate.
Give bare numbers, in µM.

Binder	Scale Unit	Measured Number
EVO21 (designed binder, not fully specified; ends and bridges not checked, Modified TFPI-D2 Kunitz domain; made as m1) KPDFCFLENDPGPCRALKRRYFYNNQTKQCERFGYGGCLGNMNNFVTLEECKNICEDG	µM	28
EVO24 (designed binder, not fully specified; cysteine pairing not given here, Modified TFPI-D2 Kunitz domain; made as m1) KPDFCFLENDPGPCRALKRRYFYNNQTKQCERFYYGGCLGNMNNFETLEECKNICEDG	µM	123
EVO214 (designed binder, not fully specified; ends and bridges not checked, Modified TFPI-D2 Kunitz domain; made as m1) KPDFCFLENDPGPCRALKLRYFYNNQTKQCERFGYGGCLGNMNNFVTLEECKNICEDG	µM	24

# input for lookup
Reported IC50, enzyme activity on synthetic substrate for EVO23 (designed binder, not fully specified; cysteine pairing not given here, Modified TFPI-D2 Kunitz domain; made as m1) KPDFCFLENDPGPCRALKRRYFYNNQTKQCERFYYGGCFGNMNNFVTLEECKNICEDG : what is it?
2.6
